test system: Fibroblast; assay: Multiplex assay against human fibroblast; assay type: toxicity, cell-based; settings: 24 h, 1 µM, compound concentration 1 uM, replicate 1
So basically: is Population Hoechst High Intensity Objects (%) under 2%? Then Met. Not under? Then Not met.

1. N#Cc1c(Oc2cccc(OS(=O)(=O)CCCC(F)(F)F)c2)cccc1C(F)(F)F = Not met
2. CCc1cc2cc(NS(=O)(=O)c3ccc(C#N)cc3)ccc2n(CC)c1=O = Not met
3. CC(=O)Nc1cccc2c1c(Sc1ccc(Cl)cc1)c(C)n2CC(=O)O [AZD1981] = Not met
4. Cc1c(CC(=O)O)c2cccnc2n1Cc1ccc(S(C)(=O)=O)cc1C(F)(F)F [FEVIPIPRANT] = Not met
5. Cc1noc(-c2ccc(-c3ccc(CC(=O)O)cc3)cc2)c1NC(=O)O[C@H](C)c1ccccc1Cl = Met
6. O=C(NCCN1CCC(n2c(=O)[nH]c3cc(Cl)ccc32)CC1)c1ccc(F)cc1 [HALOPEMIDE] = Not met
7. C[C@H](N)COC(=O)[C@@H](CCCCN)NC(=O)Cc1c(-c2ccc3ccccc3c2)[nH]c2c1ccc1ccccc12 = Not met
8. CN(C)C(=O)Cn1cc(-c2ccc(-c3cncc4ccccc34)cc2)cn1 = Not met
9. Cc1cnc(-c2cc(N3CCN(C(=O)CCS(C)(=O)=O)CC3)ncc2Cl)c(C)c1 = Not met
10. CC(C)(C)c1cc(NC(=O)Nc2ccc(-c3cn4c(n3)sc3cc(OCCN5CCOCC5)ccc34)cc2)no1 [QUIZARTINIB] = Met
11. CCCCC(=O)N(Cc1ccc(-c2ccccc2-c2nnn[nH]2)cc1)[C@H](C(=O)O)C(C)C = Met
12. Cl.N=C(N)NC(=O)Cc1c(Cl)cccc1Cl [GUANFACINE HYDROCHLORIDE] = Met
13. CCCCCC(O)/C=C/[C@H]1C(=O)CC(O)C1C/C=C\CCCC(=O)O (stereo partly drawn) = Met
14. Cl.NCCc1ccc(O)c(O)c1 [DOPAMINE HYDROCHLORIDE] = Met
15. COC[C@@H](c1ccc(C(F)(F)F)cc1)N1CCN(C2(C)CCN(C(=O)c3c(C)ncnc3C)CC2)C[C@@H]1C.O=C(O)/C=C\C(=O)O [VICRIVIROC MALEATE] = Not met
16. CC(C)c1noc(N2CCC(COc3ccc(-c4ccc(S(C)(=O)=O)cc4)nc3)CC2)n1 [GSK-1292263] = Not met
17. O=C1[C@H](Cc2ccc(O)cc2)N2C(=O)CCN(C(=O)NCc3ccccc3)[C@H]2CN1Cc1cccc2ccccc12 = Not met
18. Br.CS(=O)(=O)Nc1c(O)ccc2c1CCCC2C1=NCCN1 (stereo not drawn) = Met
19. Cc1onc(-c2ccccc2Cl)c1C(=O)N(C)c1ccc(Cl)cc1 = Not met
20. CC[C@@H](C)Nc1nc(C)nc2c(-c3ccc(OC)nc3C)c(C)nn12 [PEXACERFONT] = Met
21. NCCc1cn(S(=O)(=O)c2c(Cl)nc3sccn23)c2ccccc12.O=C(O)C(=O)O = Not met
22. CC(/C=C1\SC(=S)N(CCCC(=O)Nc2ccc(C(=O)O)c(O)c2)C1=O)=C\c1ccccc1 = Met
23. Cc1sc2c(c1C)C(c1ccc(Cl)cc1)=N[C@@H](CC(=O)NCCCCCCCCNC(=O)COc1cccc3c1C(=O)N(C1CCC(=O)NC1=O)C3=O)c1nnc(C)n1-2 (stereo partly drawn) = Not met
